Test system: SUP-M2 cells
Assay: Cell proliferation assay, SUP-M2 cells (CCK-8)
Assay type: cell-based
Settings: 72 h exposure, Cell Counting Kit-8 assay
experimental-readout: IC50 (nM)
// note: answer is a bare numeric in nM

Query block: Note IC50 for the molecule shown: Cc1cc(Nc2ncnc(Nc3ccccc3S(=O)(=O)C(C)C)n2)c2c(c1C1CCN(C)CC1)C[C@@H](C)O2 [Example 2]
Result block: 54.4

Query block: Note IC50 for the molecule shown: Cc1cc(Nc2ncnc(Nc3ccccc3S(=O)(=O)C(C)C)n2)c2c(c1C1CCN(C(=O)CN)CC1)C[C@@H](C)O2 [Example 10]
Result block: 79.6

Query block: Note IC50 for the molecule shown: CC(=O)N1CCC(c2c(C)cc(Nc3ncnc(Nc4ccccc4S(=O)(=O)C(C)C)n3)c3c2C[C@@H](C)O3)CC1 [Example 3]
Result block: 50.4

Query block: Note IC50 for the molecule shown: Cc1cc(Nc2ncnc(Nc3ccccc3S(=O)(=O)C(C)C)n2)c2c(c1C1CCN(C(=O)CO)CC1)C[C@@H](C)O2 [Example 9]
Result block: 33.7

Query block: Note IC50 for the molecule shown: Cc1cc(Nc2ncnc(Nc3ccccc3S(=O)(=O)C(C)C)n2)c2c(c1C1CCN(C(=O)[C@H](C)N)CC1)C[C@@H](C)O2 [Example 11]
Result block: 67.1

Query block: Note IC50 for the molecule shown: Cc1cc(Nc2ncnc(Nc3ccccc3S(=O)(=O)C(C)C)n2)c2c(c1C1CCNCC1)C[C@@H](C)O2 [Example 1]
Result block: 99.3

Query block: Note IC50 for the molecule shown: Cc1cc(Nc2ncnc(Nc3ccccc3S(=O)(=O)C(C)C)n2)c2c(c1C1CCN(CCO)CC1)C[C@@H](C)O2 [Example 5]
Result block: 70

From: patent US20160145244A1
